Experiment: Human HepG2 cell viability assay in 384 well format
Assay type: toxicity, cell-based
Parameters: dose 125 nL, time 70.5 hour; concentration not given beside the values
Details: HepG2 cells, read-out: Inhibition

- COMPOUND: "CN(C)c1ccc(NC(=O)NCc2cccs2)cn1"
  cytotoxicity at 70.5 h [%]: -6.16
- COMPOUND: "Cc1ccccc1NC(=O)N1CCN(C(=O)C2CC2)[C@@H]2CS(=O)(=O)C[C@@H]21"
  cytotoxicity at 70.5 h [%]: -6.63
- COMPOUND: "COCCN(C)C(=O)c1nc2c(s1)CCCN2c1ccc(C)nn1"
  cytotoxicity at 70.5 h [%]: -1.66
- COMPOUND: "COc1cc(CN2CCCC2)ccc1Oc1ccc2c(c1)CC(CN)O2 (configuration not stated)"
  cytotoxicity at 70.5 h [%]: 1.9
- COMPOUND: "COC(=O)Cn1c(C)cc(=O)n2nc(-c3cccs3)nc12"
  cytotoxicity at 70.5 h [%]: 13.3
- COMPOUND: "Cc1csc(CN2CC[C@H]3C[C@@H](c4noc(C)n4)O[C@@H]3C2)n1"
  cytotoxicity at 70.5 h [%]: -0.439
- COMPOUND: "Cc1ccc(C(C)(O)CNC(=O)NCCc2ccc3c(c2)CCO3)o1 (configuration not stated)"
  cytotoxicity at 70.5 h [%]: 26.1
- COMPOUND: "COc1cc(C#N)ccc1OCC(=O)NS(=O)(=O)c1cccnc1"
  cytotoxicity at 70.5 h [%]: -7.29
- COMPOUND: "c1cnc(N2CCC3(CCN(CC4CCOC4)C3)CC2)nc1 (configuration not stated)"
  cytotoxicity at 70.5 h [%]: -17.9
- COMPOUND: "CCOc1ccc(CN2CCCC(c3cc4ncccc4[nH]3)C2)cc1 (configuration not stated)"
  cytotoxicity at 70.5 h [%]: 6.95
- COMPOUND: "CCS(=O)(=O)CC(=O)Nc1cccc2c1CN(CC(C)C)C2"
  cytotoxicity at 70.5 h [%]: -0.0392
- COMPOUND: "Cc1cccc(-c2noc(CN3CCOC(Cn4cccn4)C3)n2)c1 (configuration not stated)"
  cytotoxicity at 70.5 h [%]: -11.5
- COMPOUND: "CNC(=O)c1c(C)cccc1NCC(=O)Nc1cc(C)nn1C"
  cytotoxicity at 70.5 h [%]: 8.71
- COMPOUND: "COC(=O)CNC(=O)c1scnc1C"
  cytotoxicity at 70.5 h [%]: -1.16
- COMPOUND: "Cc1ncc(CN2CCCC(c3nc4ccccc4n3C(C)C)C2)s1 (configuration not stated)"
  cytotoxicity at 70.5 h [%]: -2.93
- COMPOUND: "CN1CCN(C(=O)c2cc3sccc3n2Cc2ccccc2)CC1"
  cytotoxicity at 70.5 h [%]: -6.85
- COMPOUND: "CC(=O)N1CCN(C(=O)NCCc2ccc(Cl)s2)CC1"
  cytotoxicity at 70.5 h [%]: -4.33
- COMPOUND: "O=C(NC1CCCN(c2ccc(OC(F)F)cc2)C1)c1c[nH]nn1 (configuration not stated)"
  cytotoxicity at 70.5 h [%]: 18.5
- COMPOUND: "COc1ccccc1CN1C(=O)O[C@@H]2CN(c3nccs3)C[C@@H]21"
  cytotoxicity at 70.5 h [%]: 1.12
- COMPOUND: "Cc1ncccc1Oc1cncc(C2CCCN2Cc2cncn2C)n1 (configuration not stated)"
  cytotoxicity at 70.5 h [%]: -2.83
- COMPOUND: "COC1CCC[C@@H]2CN(Cc3csc(C)n3)C[C@H]12 (some centres not stated)"
  cytotoxicity at 70.5 h [%]: -4.08
- COMPOUND: "CN1CCN([C@@H]2CCN(C3CCOCC3)[C@H]2Cc2cnn(C)c2)CC1"
  cytotoxicity at 70.5 h [%]: -6.56
- COMPOUND: "CC(C)[C@H](NS(C)(=O)=O)C(=O)NCc1cc(-c2ccccc2)n[nH]1"
  cytotoxicity at 70.5 h [%]: -10.8
- COMPOUND: "O=C(Cc1csc(N2CCNC2=O)n1)NC1(c2ccccc2)CCC1"
  cytotoxicity at 70.5 h [%]: -8.91
- COMPOUND: "O=c1[nH]c2c(c(=O)n1C1CCCCC1)CCC2Nc1ccccn1 (configuration not stated)"
  cytotoxicity at 70.5 h [%]: 20.1
- COMPOUND: "O=C1COC2(CCN(S(=O)(=O)C3CC3)CC2)CN1c1cccnc1"
  cytotoxicity at 70.5 h [%]: 40.1
- COMPOUND: "Cc1ncsc1C(=O)N1CCCC1c1c(C)nn(C)c1Cl (configuration not stated)"
  cytotoxicity at 70.5 h [%]: -13.8
- COMPOUND: "CCNC(=O)C1(Cc2cc(-c3ccccc3)no2)CCCN(C(C)=O)C1 (configuration not stated)"
  cytotoxicity at 70.5 h [%]: 10.5
- COMPOUND: "Clc1cnc(NCc2ccccc2N2CCOCC2)nc1"
  cytotoxicity at 70.5 h [%]: -14.4
- COMPOUND: "O=C(c1cnccn1)N1CCCC2(CCN(Cc3ccc(F)cc3)C2)C1 (configuration not stated)"
  cytotoxicity at 70.5 h [%]: -4.76
- COMPOUND: "CCc1ccccc1C(=O)N1C[C@@H](CN2CCOCC2)[C@@H](CO)C1"
  cytotoxicity at 70.5 h [%]: 27.9
- COMPOUND: "COCCC(=O)N1CC2(CCN(Cc3cccc(Cl)c3)CC2)C1"
  cytotoxicity at 70.5 h [%]: -8.68
- COMPOUND: "Cc1cc(C(F)(F)F)nc(CNC(=O)CCC2CCCN(C)C2)n1 (configuration not stated)"
  cytotoxicity at 70.5 h [%]: -6.3
- COMPOUND: "CCCC(=O)N1CCC2(CC1)COC2"
  cytotoxicity at 70.5 h [%]: -7.56
- COMPOUND: "CNC(=O)CCc1cc(C)nc(C2CCN(c3ccccc3)CC2)c1"
  cytotoxicity at 70.5 h [%]: -3.63
- COMPOUND: "CCC(C(=O)N1CCN(S(=O)(=O)N2CCCC2)CC1)n1cccn1 (configuration not stated)"
  cytotoxicity at 70.5 h [%]: -3.42
- COMPOUND: "CC(=O)N1C[C@H]2CN(CC3CC3)C(=O)[C@H]2C1"
  cytotoxicity at 70.5 h [%]: -0.948
- COMPOUND: "O=S(=O)(NCCC(O)c1cccs1)c1ccccc1Cl (configuration not stated)"
  cytotoxicity at 70.5 h [%]: -10.8
- COMPOUND: "O=C1CCCCN1c1cccc(CNC2CCCC2)c1"
  cytotoxicity at 70.5 h [%]: -17.9
- COMPOUND: "Cc1nnsc1C(=O)NCc1cccnc1N(C)C"
  cytotoxicity at 70.5 h [%]: -3.02
- COMPOUND: "Cc1nc(C)n(C2CCCN(C(=O)c3c[nH]c(C(C)C)n3)C2)n1 (configuration not stated)"
  cytotoxicity at 70.5 h [%]: -11.1
- COMPOUND: "COc1ccc(OC)c(C2CCN(C(=O)[C@H]3CC[C@@H](O)CC3)C2)c1 (some centres not stated)"
  cytotoxicity at 70.5 h [%]: -9.68
- COMPOUND: "Cc1cnn(C2CN(CCCOc3ccc(C#N)cc3)C2)c1"
  cytotoxicity at 70.5 h [%]: -2.39
- COMPOUND: "CN1C(=O)CCCC12CCCN(C(=O)c1cc(F)cc(F)c1)C2 (configuration not stated)"
  cytotoxicity at 70.5 h [%]: -9.55
- COMPOUND: "c1coc(-c2nnc(CN3CCCC3Cn3cncn3)o2)c1 (configuration not stated)"
  cytotoxicity at 70.5 h [%]: -1.88
- COMPOUND: "CCc1[nH]ncc1C(=O)N1CCCC(n2ccnc2C(C)C)C1 (configuration not stated)"
  cytotoxicity at 70.5 h [%]: 1.64
- COMPOUND: "Cn1cnnc1SCc1cc2c(cc1Cl)OCO2"
  cytotoxicity at 70.5 h [%]: -20.6

meta.source: ChEMBL document CHEMBL3507680
